Plant response rating, Cocklebur values by entry
Tested on: cocklebur
assay-overview: Test C pre-/postemergence herbicide test
Format: in vivo, Xanthium strumarium
assay-context: Postemergence; 250 g ai/ha; scale 0 to 100, 0 no effect, 100 complete control

>  <molecule>
CCOC(=O)c1cccc(NC(=O)c2nn(C(C)(C)CC)nc2CC)c1 [Compound 375]

>  <Plant response rating, Cocklebur>
15

$$$$
>  <molecule>
CCOC(=O)c1cc(NC(=O)c2cc(C(C)(C)C)nn2CC)ccc1OC [Compound 96]

>  <Plant response rating, Cocklebur>
90

$$$$
>  <molecule>
CCn1nc(C(C)(C)C)cc1C(=O)Nc1cccc(SC(F)(F)F)c1 [Compound 130]

>  <Plant response rating, Cocklebur>
90

$$$$
>  <molecule>
CCNC(=O)c1cc(NC(=O)c2cc(C(C)(C)C)nn2CC)ccc1F [Compound 58]

>  <Plant response rating, Cocklebur>
20

$$$$

----------
Barnyardgrass plant response rating values by entry
System: barnyardgrass
assay-overview: Test C flooded paddy test
Format: in vivo, Echinochloa crus-galli
assay-context: 250 g ai/ha, scale of 0 to 100, 0 is no effect, 100 is complete control
From the text: […]

>  <smiles-code>
C=CCNC(=O)c1ccc(F)c(NC(=O)c2nn(C(C)(C)C)nc2CC)c1

>  <Barnyardgrass plant response rating>
15

$$$$
>  <smiles-code>
CCn1nc(C(C)(C)C)c(F)c1C(=O)Nc1cccc(C(=O)N(C)C)n1

>  <Barnyardgrass plant response rating>
30

$$$$
>  <smiles-code>
CCc1nc(C(C)(C)C)sc1C(=O)Nc1cccc(C(=O)N(C)C)c1

>  <Barnyardgrass plant response rating>
95

$$$$
>  <smiles-code>
CCc1nn(C(C)(C)CC)nc1C(=O)Nc1cc(C(=O)N(C)C)ccc1F

>  <Barnyardgrass plant response rating>
0

$$$$
>  <smiles-code>
CCNC(=O)c1ccc(F)c(NC(=O)c2c3c(nn2CC)C(C)(C)CC3)c1

>  <Barnyardgrass plant response rating>
20

$$$$
>  <smiles-code>
CCn1nc(C(C)(C)C)cc1C(=O)Nc1cccc(OC(F)F)c1

>  <Barnyardgrass plant response rating>
50

$$$$
>  <smiles-code>
CCn1nc(C(C)(C)C)cc1C(=O)Nc1cncc(C(=O)N(C)C)c1

>  <Barnyardgrass plant response rating>
15

$$$$
>  <smiles-code>
CCNC(=O)c1cc(NC(=O)c2cc(C(C)(C)C)nn2CC)ccc1F

>  <Barnyardgrass plant response rating>
35

$$$$
>  <smiles-code>
CCN(C)C(=O)c1cncc(NC(=O)c2cc(C(C)(C)C)nn2CC)c1

>  <Barnyardgrass plant response rating>
0

$$$$
>  <smiles-code>
CCn1nc(C2(C)CC2)cc1C(=O)Nc1cccc(C(=O)N(C)C)c1

>  <Barnyardgrass plant response rating>
80

$$$$
>  <smiles-code>
Cc1nn(C(C)C)nc1C(=O)Nc1cccc(C(=O)N(C)C)c1

>  <Barnyardgrass plant response rating>
20

$$$$
>  <smiles-code>
CCNC(=O)c1cccc(NC(=O)c2cn(C(C)(C)C)nc2C)c1

>  <Barnyardgrass plant response rating>
0

$$$$
>  <smiles-code>
C=Cn1nc(C(C)(C)C)cc1C(=O)Nc1cccc(C(C)=O)c1

>  <Barnyardgrass plant response rating>
30

$$$$
>  <smiles-code>
CCc1nn(C(C)(C)C)nc1C(=S)Nc1cccc(C(=S)N(C)C)c1

>  <Barnyardgrass plant response rating>
75

$$$$
>  <smiles-code>
CCNC(=O)c1cccc(NC(=O)c2nn(C(C)(C)C)cc2Cl)c1

>  <Barnyardgrass plant response rating>
0

$$$$
>  <smiles-code>
CCn1nc(C(C)(C)C)cc1C(=O)Nc1cc(C(=O)N2CC=CC2)ccn1

>  <Barnyardgrass plant response rating>
80

$$$$
>  <smiles-code>
CCOC(=O)c1cc(NC(=O)c2cc(C(C)(C)C)nn2CC)ccc1OC

>  <Barnyardgrass plant response rating>
70

$$$$
